target: T1, H3K4me2 (Arabidopsis thaliana); assay: ITC
T1 chain: ARTK(Me2)QTARKSTGGKA
pKd: −log10 of the molar value. Where no end group is shown, it is not given here. Me2 = dimethyl-lysine
endpoint: pKd

[[record]]
binder = "PAIPP2-PHD finger (domain or fragment) VKVCDICGDAGREDLLAICSGCSDGAEHTYCMREMLDEVPEGDWLCEECAEE"
test_result = 4.52

